The entries below come with measured MIC Spn52 values attached.
# Test system: S. pneumoniae ATCC 51916
# assayNotes: MIC, S. pneumoniae
# Assay type: cell-based
# studyConditions: S. pneumoniae
# number only, unit µg/mL dropped from output

See these solved cases before continuing.
CCc1[nH]c2nc(Sc3cnc4nccnc4c3)nc(N(C)C[C@@H](O)c3cccc(O)c3)c2c1Cl.O=C(O)C(F)(F)F [700,570]; 8
CCCn1c(=O)cc(Sc2nc(N3CC(O)C3)c3c(Cl)c(CC)[nH]c3n2)[nH]c1=O [700,418]; 8
CCOc1nc(Oc2ccc3nc(C)ccc3c2)nc2[nH]c(CC)c(Cl)c12.O=C(O)C(F)(F)F [700,690]; 8

We next turn to a different compound, shown below.
Measured on S. pneumoniae ATCC 51916, CCc1[nH]c2nc(Sc3cnc4nccnc4c3)nc(N3CC[C@@H](O)C3)c2c1Cl [700,428] has a documented MIC Spn52 of 1

* * *

// values below are reported MIC Spn52
# Tested on: S. pneumoniae ATCC 51916
# assayNotes: MIC, S. pneumoniae
# Assay type: cell-based
# studyConditions: S. pneumoniae

Look over these answered cases.
CCc1[nH]c2nc(Sc3cnc4nccnc4c3)nc(N3CC(N)C3)c2c1Br; 2 µg/mL
CCc1[nH]c2nc(Sc3cccnc3)nc(Cl)c2c1Cl.O=C(O)C(F)(F)F; 16 µg/mL
CCc1[nH]c2nc(Sc3cnc(Oc4cccnc4)nc3)nc(N3CC(N)C3)c2c1Cl; 32 µg/mL
CCc1[nH]c2nc(Sc3cnc4nccnc4c3)nc(N3CC(N4CCNCC4)C3)c2c1Cl.O=C(O)C(F)(F)F.O=C(O)C(F)(F)F; 8 µg/mL
CCc1[nH]c2nc(Sc3cnc4nccnc4c3)nc(N3CC(CN)C3)c2c1Br; 16 µg/mL
CCc1[nH]c2nc(Nc3cnc4c(c3)nnn4C(C)C)nc(N3CC[C@@H](N(C)C)C3)c2c1Cl.O=C(O)C(F)(F)F.O=C(O)C(F)(F)F; 8 µg/mL

The compound identified as CCOc1nc(Nc2cnc3cccnc3n2)nc2[nH]c(CC)c(Br)c12.Cl.Cl registered its MIC Spn52 at > 64 µg/mL

Short answer for CCc1[nH]c2nc(Sc3nc(C(=O)O)cs3)nc(N3CCCC(CO)C3)c2c1Cl.O=C(O)C(F)(F)F (stereo not shown) : MIC Spn52 was > 64 µg/mL

* * *

The molecules listed here are annotated with their log10(MIC Spn52).
# Test system: S. pneumoniae ATCC 51916
# assayNotes: MIC, S. pneumoniae
# Type: cell-based
# studyConditions: S. pneumoniae
In our notation, the value equals log10 of MIC Spn52 in µg/mL.

# annotated cases, reported log10(MIC Spn52) shown
CCc1[nH]c2nc(Sc3cnc4nccnc4c3)nc(N3CCOCC3)c2c1Cl; 0.00
CCc1[nH]c2nc(Sc3cnc4nccnc4c3)nc(N3CCC(CN)C3)c2c1Cl.O=C(O)C(F)(F)F (stereo not shown); 1.20
CCc1[nH]c2nc(Sc3cnc4nccnc4c3)nc(N3CC(CN(C)C)C3)c2c1Cl.O=C(O)C(F)(F)F.O=C(O)C(F)(F)F; 0.60
CCc1[nH]c2nc(Sc3cnc4nccnc4c3)nc(N3C[C@H]4CCCN[C@H]4C3)c2c1Cl.O=C(O)C(F)(F)F; 0.30
CCc1[nH]c2nc(Sc3ccc4cc(C#N)cnc4c3)nc(N3CC[C@@H](N)C3)c2c1Cl; 0.00

Measured log10(MIC Spn52) of CCc1[nH]c2nc(Sc3cc(=O)n(C)c(=O)[nH]3)nc(N3CC(O)C3)c2c1Br : 0.00
